MEASUREMENT_NOTES: Cmax in rat at 5 mg/kg
Format: ADME, organism-based
Design: dose 5 mg/kg
EXPERIMENTAL_CONDITIONS: in vivo
OBSERVED_PROPERTY: Cmax (ng/mL)
Write the value in ng/mL as a bare number.

Data request, read-out Cmax, for COC(=O)NC(C)C#Cc1cnc(Oc2ccc(OC(C)C)cc2)s1 (stereo unspecified)
900

* * *

TARGET_OF_ASSAY: Acetyl-CoA carboxylase 2 (Homo sapiens)
Sequence (O00763 whole entry): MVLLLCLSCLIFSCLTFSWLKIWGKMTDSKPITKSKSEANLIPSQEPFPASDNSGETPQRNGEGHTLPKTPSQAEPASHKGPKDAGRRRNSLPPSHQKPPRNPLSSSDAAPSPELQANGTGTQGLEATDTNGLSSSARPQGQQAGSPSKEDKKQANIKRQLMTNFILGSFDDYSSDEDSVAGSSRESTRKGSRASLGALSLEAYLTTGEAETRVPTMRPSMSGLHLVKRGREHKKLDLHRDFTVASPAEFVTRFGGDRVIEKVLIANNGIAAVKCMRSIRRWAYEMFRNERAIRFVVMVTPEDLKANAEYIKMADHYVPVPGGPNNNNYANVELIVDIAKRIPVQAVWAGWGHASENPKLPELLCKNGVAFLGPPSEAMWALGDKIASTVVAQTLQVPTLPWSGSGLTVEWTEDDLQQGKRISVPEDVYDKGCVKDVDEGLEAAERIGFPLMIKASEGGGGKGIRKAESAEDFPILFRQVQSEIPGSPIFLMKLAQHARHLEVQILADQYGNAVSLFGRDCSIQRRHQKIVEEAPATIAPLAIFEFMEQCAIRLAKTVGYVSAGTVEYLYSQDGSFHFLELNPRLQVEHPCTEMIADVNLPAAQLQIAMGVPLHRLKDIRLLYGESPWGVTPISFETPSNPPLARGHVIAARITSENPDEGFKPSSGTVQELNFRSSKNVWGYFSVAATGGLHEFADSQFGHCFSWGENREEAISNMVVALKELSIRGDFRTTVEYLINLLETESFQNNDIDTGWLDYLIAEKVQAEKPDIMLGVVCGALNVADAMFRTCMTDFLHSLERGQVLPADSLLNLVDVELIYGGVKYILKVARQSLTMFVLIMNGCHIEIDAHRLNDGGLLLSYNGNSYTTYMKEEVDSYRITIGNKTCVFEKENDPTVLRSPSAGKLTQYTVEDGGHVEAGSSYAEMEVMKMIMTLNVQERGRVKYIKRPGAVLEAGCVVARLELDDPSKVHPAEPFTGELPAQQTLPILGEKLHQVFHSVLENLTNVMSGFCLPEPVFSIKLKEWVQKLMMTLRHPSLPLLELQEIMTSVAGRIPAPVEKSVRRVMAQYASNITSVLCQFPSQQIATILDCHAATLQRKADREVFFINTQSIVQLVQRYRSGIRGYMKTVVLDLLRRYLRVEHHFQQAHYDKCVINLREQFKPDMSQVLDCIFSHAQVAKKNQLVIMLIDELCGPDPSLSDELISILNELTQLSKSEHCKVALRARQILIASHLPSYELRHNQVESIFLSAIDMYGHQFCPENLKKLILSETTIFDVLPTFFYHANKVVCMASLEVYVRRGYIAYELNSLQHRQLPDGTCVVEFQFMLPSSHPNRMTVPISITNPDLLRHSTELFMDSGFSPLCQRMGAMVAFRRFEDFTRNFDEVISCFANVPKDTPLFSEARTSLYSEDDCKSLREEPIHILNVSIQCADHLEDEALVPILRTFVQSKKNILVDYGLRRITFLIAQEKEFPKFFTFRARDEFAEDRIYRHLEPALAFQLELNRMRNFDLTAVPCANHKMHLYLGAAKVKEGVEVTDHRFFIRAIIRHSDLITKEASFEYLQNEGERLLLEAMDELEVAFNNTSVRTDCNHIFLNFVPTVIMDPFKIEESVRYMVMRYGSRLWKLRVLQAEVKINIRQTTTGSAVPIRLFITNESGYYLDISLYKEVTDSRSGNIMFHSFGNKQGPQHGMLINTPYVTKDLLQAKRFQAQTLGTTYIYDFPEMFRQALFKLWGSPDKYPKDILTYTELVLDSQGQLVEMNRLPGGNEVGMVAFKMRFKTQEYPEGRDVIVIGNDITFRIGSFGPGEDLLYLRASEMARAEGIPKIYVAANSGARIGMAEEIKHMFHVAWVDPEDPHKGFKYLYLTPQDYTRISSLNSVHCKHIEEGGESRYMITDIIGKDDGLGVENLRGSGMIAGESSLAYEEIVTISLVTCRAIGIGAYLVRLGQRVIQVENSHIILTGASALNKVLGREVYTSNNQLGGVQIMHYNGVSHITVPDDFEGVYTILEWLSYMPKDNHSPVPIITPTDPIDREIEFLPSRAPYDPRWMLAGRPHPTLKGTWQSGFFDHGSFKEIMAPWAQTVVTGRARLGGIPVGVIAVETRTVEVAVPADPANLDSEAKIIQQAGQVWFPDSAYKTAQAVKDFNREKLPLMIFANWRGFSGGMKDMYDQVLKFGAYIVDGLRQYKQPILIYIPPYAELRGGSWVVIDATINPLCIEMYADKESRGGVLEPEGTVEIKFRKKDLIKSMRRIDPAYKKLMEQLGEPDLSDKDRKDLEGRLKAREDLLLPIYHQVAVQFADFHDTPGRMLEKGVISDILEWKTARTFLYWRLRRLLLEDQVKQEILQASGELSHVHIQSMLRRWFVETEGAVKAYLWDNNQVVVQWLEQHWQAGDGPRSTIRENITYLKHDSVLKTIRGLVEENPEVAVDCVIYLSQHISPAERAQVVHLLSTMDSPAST
MEASUREMENT_NOTES: Inhibition of human recombinant ACC2 expressed in baculovirus/sf9 system
OBSERVED_PROPERTY: IC50 (nM)
Field format: number, assumed nM, no unit text.

Before answering, review these 5 worked examples.
CC(N)C#Cc1cnc(Oc2ccc(Oc3ccccc3)cc2)s1 (stereo not given)	2420
CC(=O)NC(C)C#Cc1cnc(Oc2ccc(OC(C)C)cc2)s1 (stereo not given)	19
CC(O)C#Cc1cnc(Oc2ccc(Oc3ccccc3)cc2)s1 (stereo not given)	600
COC(=O)NC(C)C#Cc1cnc(Oc2ccc(OC(C)C)cc2)s1 (stereo not given)	96
CC(=O)NC(C#Cc1cnc(Oc2ccc(OC(C)C)cc2)s1)C1CC1 (stereo not given)	840

I have this compound here, CC(C#Cc1cnc(Oc2ccc(Oc3ccccc3)cc2)s1)NC(N)=O (stereo not given) , and I need its recorded IC50.
26

Another compound to check: CC(=O)NC(C)C#Cc1cnc(Oc2ccc(OC(C)C)nc2)s1 (stereo not given)
15

Also CC(=O)NC(C)C#Cc1ccc(Oc2ccc(OC(C)C)cc2)cc1 (stereo not given) , if possible.
6

Another: CC(=O)NC(C)C#Cc1cnc(Oc2ccc(SC(C)C)cc2)s1 (stereo not given)
55

Cool, now CC(C#Cc1cnc(Oc2ccc(Oc3ccccc3)cc2)s1)N(O)C(N)=O (stereo not given)
80

Follow-up item: `CC(=O)NCC#Cc1cnc(Oc2ccc(OC(C)C)cc2)s1`
1730

Next up: `COC(=O)N[C@@H](C)C#Cc1cnc(Oc2ccc(OC(C)C)cc2)s1`
38

Proceed to `O=C(c1c2ccccc2cc2ccccc12)N1CCC(N2CCC[C@@H](C(=O)N3CCOCC3)C2)CC1`
38

What do we get for CC(=O)NC(C)C#Cc1cnc(Oc2ccc(NC(C)C)cc2)s1 (stereo not given) ?
150
